TARGET UNDER TEST: human SETD3 (Homo sapiens)
Construct: His6 (N); made in house; host or cells: E. coli BL21(DE3)
Sequence (Q86TU7 1-594): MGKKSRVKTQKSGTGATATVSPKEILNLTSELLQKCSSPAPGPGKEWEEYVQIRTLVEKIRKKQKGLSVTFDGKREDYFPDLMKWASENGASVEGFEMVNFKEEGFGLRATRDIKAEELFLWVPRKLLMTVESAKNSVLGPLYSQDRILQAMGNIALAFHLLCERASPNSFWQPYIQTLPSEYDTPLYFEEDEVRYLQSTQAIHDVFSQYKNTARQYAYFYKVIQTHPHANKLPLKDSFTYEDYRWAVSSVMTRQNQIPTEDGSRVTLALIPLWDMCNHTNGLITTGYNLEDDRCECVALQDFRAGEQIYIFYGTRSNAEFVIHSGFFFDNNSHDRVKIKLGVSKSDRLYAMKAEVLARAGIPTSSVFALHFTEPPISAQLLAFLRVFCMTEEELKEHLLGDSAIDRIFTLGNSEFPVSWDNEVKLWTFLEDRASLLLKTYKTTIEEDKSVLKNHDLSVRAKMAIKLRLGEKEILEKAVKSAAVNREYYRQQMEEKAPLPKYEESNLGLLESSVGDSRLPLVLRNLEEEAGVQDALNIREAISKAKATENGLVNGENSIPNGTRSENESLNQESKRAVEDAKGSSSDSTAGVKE
PROCEDURE SUMMARY: MALDI-TOF MS enzymatic substrate scope assay (SETD3-catalyzed methylation of βA peptides)
Format: biochemical
TEST CONDITIONS: 1 µM SETD3, 10 µM βA peptide, 100 µM SAM, 25 mM Tris, 20 mM NaCl, pH 9.0, 37 °C, 3 h, N = 2
Non-standard residues stand in square brackets, D forms with d. No end group written: not given here. Orn = NCCC[C@H](N)C(=O)O
What SETD3-catalyzed methylation after 3 h was measured for each of the following?
Answers are plain numbers, in %.

TLKYPICHGCVTNWDD (also: sidechain bridge or staple (positions not given here)) [compound 2, stapled bis-thiol alkylated βA peptide]
30
TLKYPILys(N3)HGPraVTNWDD (sidechain bridge or staple) [compound 11, triazole-stapled βA peptide from azide-alkyne cycloaddition of 10]
14

Go through the items and report each one's SETD3-catalyzed methylation after 3 h.
1. TLKYPIEHG[Orn]VTNWDD (also: sidechain bridge or staple (positions not given here)) [compound 7, i, i + 3 lactam-bridged βA peptide (Glu72-Orn75)]
2. TLKYPICHGCVTNWDD (also: sidechain bridge or staple (positions not given here)) [compound 3, stapled bis-thiol alkylated βA peptide]

Output:
1. 41
2. 35
